Ref: PubChem BioAssay

measurement target: Torsin-1A-interacting protein 1 (Homo sapiens)
protocol details: LAP1 binders from COS7 cell lysate, primary screen, small-molecule microarray, 635/667 nm fluorescence (AID 1116)
measurement setup: COS7-hLAP1 lysate binding, 635 nm fluorescence, higher = more signal
readout kind: composite z-score

                                   compound  value_reported
0  Cc1ccc(S[C@]2(C(=O)NC(C)C)CC(=O)N(C3Cc4ccccc4C3)[C@@H]2c2ccc(CO)cc2I)cc1          -0.664
1  COc1ccc(NN2C(C(O)c3ccccn3)C=CC3C(=O)N(C4CCCCC4)C(=O)C32)cc1 (stereo not drawn)           0.766
2  C[C@]1(C(=O)NC2CC2)c2ccccc2C(=O)N(Cc2ccc(OC(F)(F)F)cc2)[C@H]1c1ccc(CO)cc1           0.297
3  CC(CO)N1C(=O)[C@@H]2C3C(=O)OCCC/C=C\[C@H]3OC23C=CCN(Cn2nnc4ccccc42)C(=O)[C@@H]13 (stereo partly drawn)          -0.718
4  C=CC[C@]12N=C(c3ccc(OCCCO)cc3)O[C@H]1c1ccccc1N(C)C2=O            1.41
5  COc1ccc([Si](C)(C)[C@@H]2[C@@H](CCO)O[C@]3(C(=O)N(Cc4cccc(N5C(=O)c6cccc7cccc5c67)c4)c4ccccc43)[C@H]2C)cc1          0.0561
6  CCOC(=O)C1=CC[C@@H](c2ccc([N+](=O)[O-])cc2)N(S(=O)(=O)c2ccc(C)cc2)[C@H]1c1ccccc1           0.378
7  CC(C)(C)OC(=O)CC[C@]1(C(=O)O)N=C(c2ccc(OCCCO)cc2)O[C@H]1c1ccccc1          0.0522

====

protocol details: binders of probe aFST on microarray, primary screen, stem cell growth factor project, biochemical, small-molecule microarray, fluorescence 635/667 (AID 1086);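 also: score merges 667 nm fluorescence with signal-to-noise of each printed compound spot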
measurement setup: higher = more signal

molecule	composite z-score
C=C[C@@H](COC(C)=O)NS(=O)(=O)c1ccc(Br)cc1	0.111
CCOC(=O)C[C@H]1[C@H](OC(=O)c2ccc(C(=O)c3ccccc3)cc2)[C@@H](NC(=O)c2ccc3ccccc3c2)c2cc(OCCCO)ccc2N1C(=O)c1ccccc1	0.355
CC(C)C(=C=CC[C@H](O)c1ccc(OCCO)cc1)C[C@H](O)c1cc(Cl)cc(Cl)c1O	0.32
CC(C)(C)N1CC=CC23O[C@@H]4C=CCOC(=O)[C@@H]4[C@H]2C(=O)N(CCCO)[C@@H]3C1=O (stereo partly drawn)	-1
Cc1ccc(S[C@]2(C(=O)O)CC(=O)N(Cc3ccccc3Cl)[C@@H]2c2ccc(CO)cc2)cc1	-0.172
C=C[C@H](COC(C)=O)NS(=O)(=O)c1ccc(Br)cc1	0.0509
COCCOC(=O)N1C(=O)[C@@]2(c3cc(C#CCNC(N)=O)ccc31)[C@H](C(=O)N1CCCCCCC1)[C@H]1C(=O)O[C@H](c3ccccc3)[C@H](c3ccccc3)N1[C@@H]2c1ccc(O)cc1	0.706
O=C1O[C@@H](c2ccccc2)[C@@H](c2ccccc2)N2[C@@H](c3ccccc3OCCO)[C@]3(C(=O)Nc4ccc(C#CC5=CCCCC5)cc43)[C@@H](C(=O)NC[C@H](O)c3ccccc3)[C@H]12	0.517
CON(C)C(=O)C=C1C[C@@H](c2cccc(Cl)c2)O[C@@H](c2cccc(Cl)c2)O1	-0.0994
CC(C)C(O)C1C=CC2C(=O)N(C)C(=O)C2N1N(c1ccccc1)c1ccccc1 (stereo not drawn)	0.272
COc1cc(OC)c(C(O)C2C=CC3C(=O)N(c4ccccc4)C(=O)C3N2Nc2ccc(C#N)cc2)cc1Br (stereo not drawn)	1.73
CCCc1cccc(=O)o1	-0.278
NC(=O)NCC#Cc1ccc2c(c1)[C@]1(C(=O)N2)[C@H](C(=O)O)[C@H]2C(=O)O[C@H](c3ccccc3)[C@H](c3ccccc3)N2[C@@H]1c1ccccc1OCCO	0.734
NC(=O)N1C(=O)C2C(C1=O)C1C=C(c3ccc(CO)cc3)C2C(C2CC2)N1Cc1sc2ccccc2c1Cl (stereo not drawn)	0.32
O=C1O[C@@H](c2ccccc2)[C@@H](c2ccccc2)N2[C@@H](c3ccccc3OCCO)[C@]3(C(=O)Nc4ccc(C#CCCO)cc43)[C@@H](C(=O)N3CCN(c4ncccn4)CC3)[C@H]12	0.29
CCOC(=O)C1=CC[C@@H](c2ccc([N+](=O)[O-])cc2)N(S(=O)(=O)c2ccc(C)cc2)[C@H]1c1ccccc1	0.858
CN(C)CCCNC(=O)[C@@H]1c2ccccc2C(=O)N(CC23CC4CC(CC(C4)C2)C3)[C@H]1c1ccc(CO)cc1	0.445
CC(C)CNC(=O)[C@@]1(c2ccc([N+](=O)[O-])cc2)CC(=O)N(C2CCCCC2)[C@@H]1c1ccc(CO)cc1I	-0.126
O=C1OCC=C[C@H]2OC34C=CCN(Cn5nnc6ccccc65)C(=O)[C@H]3N(CCCCCCO)C(=O)[C@@H]4[C@@H]12 (stereo partly drawn)	-0.116
O=C1OCC=C[C@H]2OC34C=CCN(c5ccc(Cl)cc5)C(=O)[C@H]3N(CCCCCO)C(=O)[C@@H]4[C@@H]12 (stereo partly drawn)	-0.354
COC(=O)c1c(CC[C@@H](CO)NC(=O)N[C@H](Cn2cc(-c3ccccc3C)nn2)C(C)C)oc(C(C)=O)c1C(=O)OC	-0.205
C[C@H]1C2=C3C(CC[C@H]4C(OCc5ccc(F)cc5C(F)(F)F)OC[C@](C)([C@@H]34)N(C(=O)OC(C)(C)C)C2)C2COC(=O)OCC21 (stereo partly drawn)	1.61
COC(=O)[C@@]1(Cc2ccc(OC)cc2)[C@H]2c3cc(C(=O)N4CCCC4)n(CCc4cc5ccccc5[nH]4)c3C[C@H]2CN1C(=O)c1ccccc1	1.71
C=CC[C@H](OC(=O)Nc1ccc(OC)cc1)c1ccc(O)c2ccccc12	0.0069
C=CCOC(=O)[C@@H]1[C@H]2C(=O)O[C@H](c3ccccc3)[C@H](c3ccccc3)N2[C@H](c2ccc(OCCOC(=O)[C@H]3C[C@H]4C(=O)N[C@@H](CCCCN(C)C)C(=O)N4[C@H]3c3cccc(OCCO)c3)cc2)[C@@]12C(=O)Nc1ccc(I)cc12	0.312
COc1ccc([Si](C)(C)[C@@H]2[C@@H](CCO)O[C@]3(C(=O)N(Cc4cccc(N5C(=O)c6ccccc6Oc6ccccc65)c4)c4ccccc43)[C@H]2C)cc1	0.0472
CN1C(=O)C2C(C1=O)C1C=C(c3ccc(CO)cc3)C2C(c2cccs2)N1Cc1cccc(OC(F)(F)F)c1 (stereo not drawn)	0.875
CN(C)CCCCNC(=O)[C@H]1C[C@H]2C(=O)N[C@@H](CCCCN(C)C)C(=O)N2[C@H]1c1cccc(OCCO)c1	0.402

====

protocol details: small-molecule microarray binders of probe aShh, primary screen, biochemical, biotinylated probe, 635/667 nm fluorescence (AID 1114);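 also: probe is biotin-labelled aShh protein from a stem cell growth factor screen; measures binding of labelled protein to compounds printed on the slide; score merges feature fluorescence at 667 nm with signal-to-noise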
measurement setup: higher = more signal
readout kind: composite z-score

compound	readout kind	value reported
COCCOC(=O)N1C(=O)[C@@]2(c3cc(C#CC4=CCCCC4)ccc31)[C@H](c1ccc(O)cc1)N1[C@H](c3ccccc3)[C@H](c3ccccc3)OC(=O)[C@H]1[C@@H]2C(=O)Nc1nc2ccccc2s1	composite z-score	-0.066
CCCCN1CC=CC23O[C@@H]4C=CCOC(=O)[C@@H]4[C@H]2C(=O)N(C(C)CO)[C@@H]3C1=O (some centres undefined)	composite z-score	-0.209
CC(C)N1C(=O)[C@@]2(c3ccc([N+](=O)[O-])cc3)CC(=O)N(C3CCCCC3)[C@@H]2c2ccc(CO)cc21	composite z-score	-0.0553
CCCC[C@@H]1C[C@H]1[C@@H](NC(=O)c1ccccc1)c1ccc(Cl)cc1	composite z-score	-0.209
COC(=O)[C@H](Cc1ccccc1)N1CC(/C=C/C2CC2)=C[C@@H]1[C@@H](O)Cc1ccccc1	composite z-score	-0.0035
C=C(C(=O)CC[C@H](OC(C)=O)c1cccc(OCCO)c1)C(C)C	composite z-score	-0.117
CCOC(=O)[C@H]1C/C=C/C[C@H](C(=O)OCC)C(=O)O[C@H]2[C@@H](OC)O[C@H](CO)[C@@H](OC(=O)Nc3ccc(OC)cc3)[C@@H]2OC1=O	composite z-score	-0.0146
COc1ccc([Si](C)(C)[C@H]2[C@H](CCn3cc([C@H](O)c4ccccc4)nn3)O[C@@]3(C(=O)N(Cc4ccc(N5CCC5=O)cc4)c4ccccc43)[C@@H]2C)cc1	composite z-score	-0.138
COc1ccc([Si](C)(C)[C@H]2[C@H](CC(=O)N3Cc4ccccc4C[C@H]3CO)O[C@@]3(C(=O)N(Cc4cccc(N5CCCCC5=O)c4)c4ccccc43)[C@@H]2C)cc1	composite z-score	-0.0553
C=CC[C@H](OC(=O)Nc1ccc(OC)cc1)c1ccc(O)c2ccccc12	composite z-score	0.0469
COCCOC(=O)N1C(=O)[C@@]2(c3cc(C#CC4(O)CCCCCC4)ccc31)[C@H](C(N)=O)[C@H]1C(=O)O[C@H](c3ccccc3)[C@H](c3ccccc3)N1[C@@H]2c1ccc(O)cc1	composite z-score	-0.206
[N-]=[N+]=NCc1ccccc1C[C@@]1(C(=O)N2CCCCC2)N=C(c2ccc(OCCCO)cc2)O[C@@H]1c1ccccc1N=[N+]=[N-]	composite z-score	-0.284
C[C@]1(C(=O)NC2CC2)c2ccccc2C(=O)N(Cc2ccc(OC(F)(F)F)cc2)[C@H]1c1ccc(CO)cc1	composite z-score	-0.0243
C[C@@H]1ON(c2ccc(C(=O)OC(C)(C)C)cc2)[C@H](c2ccc(Br)cc2)[C@H]1C(=O)N1C(=O)OC[C@H]1Cc1ccccc1	composite z-score	-0.138
CN(C)CCCNC(=O)[C@@]1(C)c2ccccc2C(=O)N(Cc2cc(C(F)(F)F)cc(C(F)(F)F)c2)[C@H]1c1ccc(CO)cc1	composite z-score	-0.134
O=C1c2ccccc2[C@@]2(Cc3ccccc3N(C3CC3)C2=O)[C@H](c2ccc(CO)cc2)N1C1CCCCC1	composite z-score	0.107
O=C1O[C@@H](c2ccccc2)[C@@H](c2ccccc2)N2[C@@H](c3ccccc3OCCO)[C@]3(C(=O)Nc4ccc(C#CC5=CCCCC5)cc43)[C@@H](C(=O)NC[C@H](O)c3ccccc3)[C@H]12	composite z-score	-0.0709
COCCOC(=O)N1C(=O)[C@@]2(c3cc(C#CC4(O)CCCCCC4)ccc31)[C@H](C(N)=O)[C@H]1C(=O)O[C@H](c3ccccc3)[C@H](c3ccccc3)N1[C@@H]2c1ccccc1OCCO	composite z-score	-0.223
CCOc1cc(C(O)C2C=CC3C(=O)N(C)C(=O)C3N2N2CCCCC2)ccc1O (centres undefined)	composite z-score	0.199
O=c1cccc(-c2ccc(C(F)(F)F)cc2)o1	composite z-score	0.163
COCCCNC(=O)[C@]1(Cc2ccccc2N=[N+]=[N-])N=C(c2ccc(OCCCO)cc2)O[C@@H]1c1ccccc1N=[N+]=[N-]	composite z-score	0.0556
O=C(CCCCCCC(=O)Nc1ccccc1)N/N=C/c1ccccc1	composite z-score	0.0224
COc1ccc(NC(=O)O[C@H]2[C@H](OC(=O)Nc3ccc4c(c3)OCO4)[C@@H](OC(=O)Nc3ccc4c(c3)OCO4)[C@@H](OC)O[C@@H]2CO)cc1	composite z-score	0.365
COc1ccc(NN2C(C(O)c3ccco3)C=CC3C(=O)N(C4CCCCC4)C(=O)C32)cc1 (centres undefined)	composite z-score	0.0639
C=CC[C@]12N=C(c3ccc(OCCCO)cc3)O[C@H]1c1ccccc1N(C)C2=O	composite z-score	0.287
COC(=O)Cn1c(C(=O)N2CCCC2)cc2c1C[C@H]1CN(C(=O)c3ccccc3)[C@@](Cc3ccc(F)cc3)(C(=O)OC)[C@@H]21	composite z-score	-0.0738
COc1ccc([Si](C)(C)[C@H]2[C@H](CCO)O[C@@]3(C(=O)N(Cc4cccc(N5CCCCC5=O)c4)c4ccccc43)[C@@H]2C)cc1	composite z-score	0.149
CN1C(=O)C2C=CC(C(O)Cc3ccccc3)N(N(c3ccccc3)c3ccccc3)C2C1=O (centres undefined)	composite z-score	0.0469
CC(C)C(=C=CC[C@@H](O)c1ccccc1OCCO)C[C@@H](O)COCc1ccccc1	composite z-score	-0.0769
